Tested on: A549
assayInfo: Cytotoxicity against human A549 cells after 48 hrs by MTT assay
Type: functional, cell-based
conditionNotes: A549, 48 h
pIC50: −log10 of the molar value.
What pIC50 was measured for each of the following?

Some solved entries appear below for comparison.
smilesinput=COc1cc(/C=C2\C(=O)Nc3ccc(C)cc32)ccc1OCCCN1CCN(c2ncccc2C(F)(F)F)CC1 endpointresult="< 4.70"
smilesinput=COc1cc(/C=C2\C(=O)Nc3ccccc32)ccc1OCCCN1CCN(c2ncccc2C(F)(F)F)CC1 endpointresult="< 4.70"
smilesinput=COc1cc(/C=C2\C(=O)Nc3ccc(Cl)cc32)ccc1OCCCN1CCN(c2ccccn2)CC1 endpointresult="< 4.70"
smilesinput=COc1cc(/C=C2\C(=O)Nc3ccc(C)cc32)ccc1OCCN1CCOCC1 endpointresult="< 4.70"

We now examine a further molecule.
Input line: Any idea what pIC50 was measured for COc1cc(/C=C2\C(=O)Nc3ccc(Cl)cc32)ccc1OCCCN1CCN(c2ncccc2C(F)(F)F)CC1 ?
Output line: 5.02

---

System: MCF-10A
assayInfo: Cytotoxicity against human MCF10A cells after 48 hrs by MTT assay
Format: cell-based
What IC50 was measured for each of the following?
Give bare numbers, in µM.

Hi there! I need IC50 for each item below, if you can.
1. COc1cc(/C=C2\C(=O)Nc3ccc(Cl)cc32)ccc1OCCCN1CCN(c2ncccc2C(F)(F)F)CC1
2. COc1cc(/C=C2\C(=O)Nc3ccc(Cl)cc32)ccc1OCCN1CCOCC1
3. COc1cc(/C=C2\C(=O)Nc3ccc(Cl)cc32)ccc1OCCCN1CCN(C)CC1
4. COc1cc(/C=C2\C(=O)Nc3ccc(Cl)cc32)ccc1OCCCN1CC(C)OC(C)C1 (stereo not drawn)
5. COc1cc(/C=C2\C(=O)Nc3ccc(Cl)cc32)ccc1OCCCN1CCN(c2ccccn2)CC1

Output line:
1: 41.3; 2: 61.3; 3: 43.6; 4: 54.6; 5: 51.3

---

Tested on: A549
assayInfo: Cytotoxicity against human A549 cells after 48 hrs by MTT assay
Type: functional, cell-based
conditionNotes: A549, 48 h
endpointName: IC50 (µM)
One number for each entry, in µM.

Some solved entries appear below for comparison.
smilesinput=COc1cc(/C=C2\C(=O)Nc3ccc(Cl)cc32)ccc1OCCCN1CCN(C)CC1 endpointresult=11.3
smilesinput=COc1cc(/C=C2\C(=O)Nc3ccccc32)ccc1OCCCN1CCN(C)CC1 endpointresult=3.35

Hi there! I need IC50 for each item below, if you can.
1. COc1cc(/C=C2\C(=O)Nc3ccc(Cl)cc32)ccc1OCCCN1CCOCC1
2. COc1cc(/C=C2\C(=O)Nc3ccc(Cl)cc32)ccc1OCCN1CCOCC1

Output line:
[5.5, 14.7]

---

Test system: MCF-10A
assayInfo: Cytotoxicity against human MCF10A cells after 48 hrs by MTT assay
Format: cell-based
pIC50: −log10 of the molar value.
endpointName: pIC50

smilesinput=COc1cc(/C=C2\C(=O)Nc3ccccc32)ccc1OCCCN1CCN(C)CC1 endpointresult="< 4.00"
smilesinput=COc1cc(/C=C2\C(=O)Nc3ccc(C)cc32)ccc1OCCN1CCOCC1 endpointresult="< 4.00"

Input line: Any idea what pIC50 was measured for COc1cc(/C=C2\C(=O)Nc3ccc(Cl)cc32)ccc1OCCCN1CCOCC1 ?
Output line: < 4.00
